Below is a list of entries, each paired with its recorded z-score value.
# method: basal RPMI8226 viability, no added stimulus, profiling panel, cell-based, calcein-AM fluorescence, 48 h, PK04 Diversity Set (AID 1166);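 also: cells grown under basal conditions without added stimulus; test concentration not given here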
# experimentalConditions: RPMI8226 myeloma viability, higher = more signal

Use these answered entries as a reference point.
INSERT INTO results (molecule, resultvalue) VALUES
  ('CC(C)CCN1CCc2nc(-c3ccccc3)c3c(c2C1)CO[C@@H](C)C3', 0.0677),
  ('CO[C@H]1COC(=O)[C@H](C)NC(=O)CC=C[C@@H](C)[C@H](OC)COC(=O)CC=C[C@@H]1C', 0.417),
  ('CCOC(=O)[C@H](Cc1ccccc1)NC(=O)CCC1CC(OC(=O)NCc2cccc3ccccc23)CC2(CCCC(COC(=O)NCCCN3CCCC3=O)O2)O1 (some centres undefined)', -0.178);

Please find the next molecule below.
Query string: Field request: z-score | item: CCOC(=O)NN=C1C[C@@H](O)[C@@H](O)[C@@H]2[C@@H]3C(=O)N(Cc4ccccc4)C(=O)[C@@H]3CC[C@@H]12
Result string: -0.461
